# target or system: LRRK2 (Homo sapiens, UniProt Q5S007)
# Sequence (Q5S007 970-2527 limits assumed): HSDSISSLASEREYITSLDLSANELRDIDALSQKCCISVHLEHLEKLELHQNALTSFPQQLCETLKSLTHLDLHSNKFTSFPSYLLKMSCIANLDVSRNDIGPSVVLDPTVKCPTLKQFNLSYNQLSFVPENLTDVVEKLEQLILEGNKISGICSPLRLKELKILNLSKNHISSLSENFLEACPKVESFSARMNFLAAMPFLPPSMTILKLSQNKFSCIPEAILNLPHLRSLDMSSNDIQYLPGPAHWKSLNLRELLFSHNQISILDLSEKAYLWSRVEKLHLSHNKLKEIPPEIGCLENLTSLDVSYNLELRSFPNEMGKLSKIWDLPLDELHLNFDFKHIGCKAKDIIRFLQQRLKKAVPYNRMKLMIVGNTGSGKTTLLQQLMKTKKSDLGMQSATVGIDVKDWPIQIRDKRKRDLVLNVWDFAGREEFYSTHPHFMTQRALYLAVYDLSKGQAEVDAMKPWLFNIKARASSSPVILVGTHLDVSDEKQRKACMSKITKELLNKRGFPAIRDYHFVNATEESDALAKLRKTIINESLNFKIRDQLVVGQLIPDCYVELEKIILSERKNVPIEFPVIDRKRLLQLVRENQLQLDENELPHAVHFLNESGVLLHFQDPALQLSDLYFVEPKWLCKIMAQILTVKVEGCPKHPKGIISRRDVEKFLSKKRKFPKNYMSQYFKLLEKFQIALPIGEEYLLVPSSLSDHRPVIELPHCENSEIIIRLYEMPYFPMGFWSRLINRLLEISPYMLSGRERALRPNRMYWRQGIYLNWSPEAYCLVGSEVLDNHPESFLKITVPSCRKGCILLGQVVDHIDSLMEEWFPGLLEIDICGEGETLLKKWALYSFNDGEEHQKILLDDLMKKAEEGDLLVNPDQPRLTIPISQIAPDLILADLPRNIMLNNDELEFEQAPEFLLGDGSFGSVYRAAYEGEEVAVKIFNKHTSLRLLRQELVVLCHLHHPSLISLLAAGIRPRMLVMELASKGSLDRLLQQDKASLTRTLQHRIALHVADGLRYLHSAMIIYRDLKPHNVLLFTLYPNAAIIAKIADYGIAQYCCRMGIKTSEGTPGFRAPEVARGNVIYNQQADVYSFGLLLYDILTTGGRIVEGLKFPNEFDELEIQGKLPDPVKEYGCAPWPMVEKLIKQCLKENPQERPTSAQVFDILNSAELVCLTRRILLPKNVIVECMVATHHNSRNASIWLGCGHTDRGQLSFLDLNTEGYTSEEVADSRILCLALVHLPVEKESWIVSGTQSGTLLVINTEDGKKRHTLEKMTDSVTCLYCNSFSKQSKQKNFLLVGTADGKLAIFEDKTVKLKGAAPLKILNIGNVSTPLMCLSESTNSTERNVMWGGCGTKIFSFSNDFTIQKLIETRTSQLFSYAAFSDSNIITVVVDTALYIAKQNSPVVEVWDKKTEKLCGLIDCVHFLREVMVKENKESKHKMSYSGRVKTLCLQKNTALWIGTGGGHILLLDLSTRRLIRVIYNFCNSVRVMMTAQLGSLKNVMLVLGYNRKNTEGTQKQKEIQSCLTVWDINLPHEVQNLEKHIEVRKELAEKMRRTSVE
# test name: LRRK2-LRRK2 G2019S-Assay (LanthaScreen Eu Kinase Binding Assay)
# recorded conditions: 5 nM LRRK2, 10 nM tracer 236, 2 nM EU-Anti-GST antibody, 1 h at RT; read-out: LRRK2 Activities: IC50
# Experimental: In the assay LanthaScreen™ Eu Kinase Binding Assay by Invitrogen Corporation (Carlsbad) the effect of invention of a compound on the phosphorylation is determined by measurement of fluorescence intensity emission ratio based on the binding and displacement of a proprietary, Alexa Fluor® 647-labeled, ATP-competitive kinase inhibitor scaffold (kinase tracer) to the kinase of interest. […] The fluorescence intensity ratio is directly proportional to the amount of peptide phosphorylation. […]
Measured IC50 by item

molecule | result type | result
COc1ccc2nc(Nc3cnn(CC(C)(C)O)c3)c3[nH]ncc3c2c1 [Example 298] | IC50 | 10 to 100 nM
C=C(C)Cn1cc(Nc2nc3ccc(S(C)(=O)=O)cc3c3cn[nH]c23)cn1 [Example 264] | IC50 | < 10 nM
COCCCn1ncc(Nc2nc3ccc(S(C)(=O)=O)cc3c3cn[nH]c23)c1OC [Example 232] | IC50 | 10 to 100 nM
COc1ccc2nc(Nc3ccc(-c4nnc(S)o4)cc3)c3n[nH]cc3c2c1 [Example 84] | IC50 | 10 to 100 nM
COc1cccc2nc(Nc3cnn(C(C)(C)C#N)c3)c3[nH]ncc3c12 [Example 184] | IC50 | < 10 nM
COc1ccc2nc(Nc3cnn(C(C)(C)C#N)c3)c3[nH]ncc3c2c1 [Example 301] | IC50 | < 10 nM
COCCn1cc(Nc2nc3ccc(OC)cc3c3c[nH]nc23)cn1 [Example 109] | IC50 | 10 to 100 nM
CS(=O)(=O)c1ccc2nc(Nc3ccc(C(N)=O)cc3)c3[nH]ncc3c2c1 [Example 66] | IC50 | 10 to 100 nM

Looking up COc1ccc2nc(Nc3ccc4[nH]c(SC)nc4c3)c3n[nH]cc3c2c1 [Example 56] , I found its IC50 recorded as 100 to 1000 nM

====

# target or system: LRRK2 (Homo sapiens)
# test name: LRRK2-LRRK2 G2019S-Assay (LanthaScreen Eu Kinase Binding Assay)
# recorded conditions: 5 nM LRRK2, 10 nM tracer 236, 2 nM EU-Anti-GST antibody, 1 h at RT; read-out: LRRK2 Activities: IC50
pIC50: −log10 of the molar value.
result type: pIC50

structure smiles | result type | result
COc1cccc2c1nc(Nc1cnn(C(C)C)c1)c1[nH]ncc12 | pIC50 | 7.00 to 8.00

Entry CSc1ccc2nc(Nc3cccc(S(C)(=O)=O)c3)c3[nH]ncc3c2c1 ; assay system LRRK2 (Homo sapiens); pIC50 recorded at 7.00 to 8.00

Test item CCN1C(=O)COc2ccc(Nc3nc4ccc(OC)cc4c4c[nH]nc34)cc21 ; LRRK2 (Homo sapiens); reported pIC50 was 6.00 to 7.00

Note to self: pIC50 of COc1ccc2nc(Nc3cccc(C(C)(C)C#N)c3)c3n[nH]cc3c2c1 with LRRK2 (Homo sapiens) was 6.00 to 7.00

The observed pIC50 for CS(=O)(=O)c1ccc2nc(Nc3cnn(CCF)c3)c3[nH]ncc3c2c1 when tested with LRRK2 (Homo sapiens) stands at > 8.00

====

# target or system: LRRK2 (Homo sapiens, UniProt Q5S007)
# test name: LRRK2-LRRK2 G2019S-Assay (LanthaScreen Eu Kinase Binding Assay)
# recorded conditions: 5 nM LRRK2, 10 nM tracer 236, 2 nM EU-Anti-GST antibody, 1 h at RT; read-out: LRRK2 Activities: IC50
# Procedure: In the assay LanthaScreen™ Eu Kinase Binding Assay by Invitrogen Corporation (Carlsbad) the effect of invention of a compound on the phosphorylation is determined by measurement of fluorescence intensity emission ratio based on the binding and displacement of a proprietary, Alexa Fluor® 647-labeled, ATP-competitive kinase inhibitor scaffold (kinase tracer) to the kinase of interest. […] The fluorescence intensity ratio is directly proportional to the amount of peptide phosphorylation. […]
pIC50: −log10 of the molar value.
result type: pIC50

Field: example entries. Status: answers known.
compound | pIC50
COc1ccc2nc(Nc3cccc(C(=O)N4CCOCC4)c3)c3n[nH]cc3c2c1 | 6.00 to 7.00
COc1ccc2nc(Nc3cccc(CN(C)C)c3)c3n[nH]cc3c2c1 | 6.00 to 7.00
COc1cc(Nc2nc3cccc(F)c3c3cn[nH]c23)ccc1N1CCOCC1 | 6.00 to 7.00

For record COCC(C)(C)n1cc(Nc2nc3ccc(S(C)(=O)=O)cc3c3cn[nH]c23)cn1 the listed pIC50 is > 8.00

Recorded pIC50 (compound COc1ccc2nc(Nc3cnn(C)c3)c3n[nH]cc3c2c1 ): 7.00 to 8.00

Reported pIC50 of COc1ccc2nc(Nc3cnn(C4CC4)c3)c3[nH]ncc3c2c1 : 7.00 to 8.00

Lab note: CS(=O)(=O)c1ccc2nc(Nc3cc(C(=O)O)n[nH]3)c3n[nH]cc3c2c1 gave pIC50 of 6.00 to 7.00

Entry under test: COc1ccc2nc(Nc3cnn(C(C)c4ccccc4)c3)c3n[nH]cc3c2c1 (stereo not drawn) . Its pIC50 was 6.00 to 7.00

For record COc1ccc2nc(Nc3ccc(N4CCN(CCO)CC4)cc3)c3[nH]ncc3c2c1 the listed pIC50 is 7.00 to 8.00

====

# target or system: LRRK2 (Homo sapiens, UniProt Q5S007)
# test name: LRRK2-LRRK2 G2019S-Assay (LanthaScreen Eu Kinase Binding Assay)
# recorded conditions: 5 nM LRRK2, 10 nM tracer 236, 2 nM EU-Anti-GST antibody, 1 h at RT; read-out: LRRK2 Activities: IC50
pIC50: −log10 of the molar value.
result type: pIC50

Sample answers from the record:
compound | pIC50
CC(=O)N1CCN(c2ccc(Nc3nc4cccc(S(C)(=O)=O)c4c4cn[nH]c34)cc2)CC1 | 7.00 to 8.00
COc1ccc(Nc2nc3cc(S(C)(=O)=O)ccc3c3cn[nH]c23)cc1OC | 6.00 to 7.00
COc1c(Nc2nc3ccc(S(C)(=O)=O)cc3c3cn[nH]c23)cnn1C1CCN(C(C)(C)C)CC1 | 7.00 to 8.00
Fc1cccc2nc(Nc3ccc(N4CCOCC4)cc3)c3[nH]ncc3c12 | 7.00 to 8.00
COCCCn1cc(Nc2nc3c(OC)cc(OC)cc3c3cn[nH]c23)cn1 | 7.00 to 8.00
COc1cccc2nc(Nc3cnn(CC(F)(F)F)c3)c3[nH]ncc3c12 | > 8.00
COc1cccc2nc(Nc3ccc(CN4CCOCC4)cc3)c3[nH]ncc3c12 | 7.00 to 8.00
CC(C)(O)Cn1cc(Nc2nc3ccc(S(C)(=O)=O)cc3c3cn[nH]c23)cn1 [Example 317] | 7.00 to 8.00

Now for the compound whose pIC50 we want.
For this compound ( COCCn1cc(Nc2nc3cc(S(C)(=O)=O)ccc3c3cn[nH]c23)cn1 ), measured pIC50 is 6.00 to 7.00

====

# target or system: UniProt Q5S007
# test name: LRRK2-LRRK2 G2019S-Assay (LanthaScreen Eu Kinase Binding Assay)
# recorded conditions: 5 nM LRRK2, 10 nM tracer 236, 2 nM EU-Anti-GST antibody, 1 h at RT; read-out: LRRK2 Activities: IC50
pIC50: −log10 of the molar value.
result type: pIC50

Solved entries (count: 4):
compound | result type | result
COCCCn1cc(Nc2nc3cc(S(C)(=O)=O)ccc3c3cn[nH]c23)cn1 [Example 190] | pIC50 | 7.00 to 8.00
CC(C)(O)Cn1cc(Nc2nc3ccc(S(C)(=O)=O)cc3c3cn[nH]c23)cn1 [Example 262] | pIC50 | > 8.00
Fc1cccc2c1nc(Nc1ccc(N3CCOCC3)cc1)c1[nH]ncc12 [Example 50] | pIC50 | 6.00 to 7.00
Cc1c(Nc2nc3ccc(S(C)(=O)=O)cc3c3cn[nH]c23)cnn1C(C)C [Example 214] | pIC50 | > 8.00

Entry CS(=O)(=O)c1cccc2nc(Nc3ccc(NCCO)cc3)c3[nH]ncc3c12 [Example 106] , pIC50 reported as 6.00 to 7.00

pIC50 in this record for CS(=O)(=O)c1ccc2nc(Nc3ccc4c(c3)NC(=O)CCC4)c3[nH]ncc3c2c1 [Example 77] : > 8.00

Entry COCC(C)(C)n1cc(Nc2nc3cccc(OC)c3c3cn[nH]c23)cn1 [Example 204] , pIC50 reported as > 8.00

Record summary for COc1cccc2nc(Nc3cnn(C4CCOCC4)c3Cl)c3[nH]ncc3c12 [Example 255] : reported pIC50 = > 8.00
